Biological target: M5 muscarinic receptor (Homo sapiens, UniProt P08912)
Sequence (P08912 whole entry): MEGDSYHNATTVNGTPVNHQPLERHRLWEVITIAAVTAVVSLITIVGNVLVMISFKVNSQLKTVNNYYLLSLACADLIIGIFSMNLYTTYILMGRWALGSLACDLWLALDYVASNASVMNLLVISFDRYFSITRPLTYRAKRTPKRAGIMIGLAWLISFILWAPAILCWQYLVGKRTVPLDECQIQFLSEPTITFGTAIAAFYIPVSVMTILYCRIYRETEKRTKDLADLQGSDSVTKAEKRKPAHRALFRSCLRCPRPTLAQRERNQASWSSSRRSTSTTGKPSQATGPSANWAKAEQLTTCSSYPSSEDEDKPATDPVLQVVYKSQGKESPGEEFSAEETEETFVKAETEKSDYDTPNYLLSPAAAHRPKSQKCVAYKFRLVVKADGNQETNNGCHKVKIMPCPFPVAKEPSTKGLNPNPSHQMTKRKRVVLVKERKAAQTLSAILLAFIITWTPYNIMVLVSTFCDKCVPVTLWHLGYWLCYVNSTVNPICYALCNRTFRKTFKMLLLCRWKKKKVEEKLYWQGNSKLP
Test: accumulation of IPX, M5 CHO cells (M5Gq)
Type: cell-based
Set-up: host or cells: CHO cells, stably transfected
Details: M5 (↑IPX), preferential response, to carbachol; Tables 2, 3, 7
Quick list: Δlog(τ/KA) per entry.
No unit in the answer, only the number.

Recorded Δlog(τ/KA), per entry:
{"molecule": "Cc1ccc(CN2CC=CCC2)s1.Cl", "meas_value": 3.04}
{"molecule": "Brc1ccc(CN2CC=CCC2)s1.Cl", "meas_value": 3.03}
{"molecule": "O=C1CCCN1CC#CCN1CCCC1 [oxotremorine, reference compound]", "meas_value": "−0.62"}
{"molecule": "C[N+]1(Cc2ccc(Cl)s2)CC=CCC1.[I-] (centres unmarked)", "meas_value": 2.31}

[in] # query: Δlog(τ/KA) of entry Cc1ccc(C[N+]2(C)CC=CCC2)s1.[I-] (centres unmarked)
[out] 2.67

All values here come from patent US11591323B2.
